B1: MYBL2 (parent)
chain: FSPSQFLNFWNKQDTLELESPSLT

Variants of: B1
Assay: protein stability index of a GFP-peptide fusion (GPS, HEK-293T) (PSI 1-6); higher = more stable;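 also: lentivirally expressed fusions sorted by FACS into six bins by GFP to DsRed ratio, PSI derived from sequencing read proportions per bin multiplied by bin number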
Settings: c terminus: a fixed tail appended
# label = y if protein stability index >= 3 else n

sequenceInput: FSPSQFLNAWNKQDTLELESPSLT
labelValue: n
//
sequenceInput: FSPSQFLNFWNKQDTLELPSPSLT
labelValue: n
//
sequenceInput: FSPSQFLNFWNKQDTLELESPSLR
labelValue: y
//
sequenceInput: FSPSQFLNFMNKQDTLELESPSLT
labelValue: n
//
sequenceInput: FSPSQFLNFWNKQDYLELESPSLT
labelValue: n
//
sequenceInput: FSPSQFLNFWNKQSTLELESPSLT
labelValue: n
//
sequenceInput: FSPSQFLNFWNKQDTCELESPSLT
labelValue: n
//
sequenceInput: FSPSQFLNTWNKQDTLELESPSLT
labelValue: n
//
sequenceInput: FSPSQFLNFWNKQDTHELESPSLT
labelValue: y
//
sequenceInput: FSPSQFLNFWNKQDTLELESPSLM
labelValue: n
//
sequenceInput: FSPSQFLNFWNKQDTFELESPSLT
labelValue: y
//
sequenceInput: FSPSQFLNFWNKADTLELESPSLT
labelValue: y
//
sequenceInput: FSPSQFLNFWNKQHTLELESPSLT
labelValue: n
//
sequenceInput: FSPSQFLNFWNKQDTLELESVSLT
labelValue: n
//
sequenceInput: FSPSQFLNFWNKQDTLEYESPSLT
labelValue: y
//
sequenceInput: FSPSQFLNFWNDQDTLELESPSLT
labelValue: y
//
sequenceInput: FSQSQFLNFWNKQDTLELESPSLT
labelValue: y
//
sequenceInput: FPPSQFLNFWNKQDTLELESPSLT
labelValue: n
//
sequenceInput: FSPSQFLNFWIKQDTLELESPSLT
labelValue: n
//
sequenceInput: FSPSQFLNFWNKQDTLELESPSLL
labelValue: n
//
sequenceInput: FSPSQFLNFWGKQDTLELESPSLT
labelValue: n
//
sequenceInput: FSPSQFLNFWNKQDTLELEGPSLT
labelValue: n
//
sequenceInput: FCPSQFLNFWNKQDTLELESPSLT
labelValue: n
//
sequenceInput: FSPSQNLNFWNKQDTLELESPSLT
labelValue: n
//
sequenceInput: FSPSQFLNFWNKFDTLELESPSLT
labelValue: n
//
sequenceInput: FSPSQFLNKWNKQDTLELESPSLT
labelValue: n
//
sequenceInput: FSPSQFLNFWNKQDQLELESPSLT
labelValue: n
//
sequenceInput: FSHSQFLNFWNKQDTLELESPSLT
labelValue: n
//
sequenceInput: FSPSQFLNFWNKQDTLELESYSLT
labelValue: n
//
sequenceInput: FSPSQFLNFWNKQDTLEHESPSLT
labelValue: n
//
sequenceInput: FAPSQFLNFWNKQDTLELESPSLT
labelValue: n
//
sequenceInput: FSPSQFLNFWNKQDTLILESPSLT
labelValue: y
//
sequenceInput: FSPSQFLNFWNKQDTLELEWPSLT
labelValue: n
//
sequenceInput: FSPSQFLNFWNKQDTLELESGSLT
labelValue: y
//
sequenceInput: FLPSQFLNFWNKQDTLELESPSLT
labelValue: n
//
sequenceInput: FSPSQFLNFWNKQDTLELESRSLT
labelValue: n
//
sequenceInput: QSPSQFLNFWNKQDTLELESPSLT
labelValue: y
//
sequenceInput: FSPSQFLNFWNKQDTLENESPSLT
labelValue: n
